Source: paper PMC11754664

Molecular target: SB100X-H19Y (synthetic Sleeping Beauty transposon, K14R;H19Y;K33A;R115H;R214D;K215A;E216V;N217Q;M243H;T314N)
Assay: MST; nonspecific; Full-length MST: 50 mM Tris pH 7.5, 5 mM MgCl2, 300 mM NaCl, 2% glycerol, 50 mM Arg-Glu, 1 mM TCEP, 0.1% Triton X-100, 0.1 mg/ml BSA, 30 nM Cy5-DNA, room temp
Details: protein: recombinant; tags: Ni-NTA purified
metric: Kd (µM)
Hi! Could you send only the number? It should be in µM, unit omitted.

Annotate the binder NS2 (dsDNA) DNA 1: CGGTCTTTCCGTCTT DNA 2: AAGACGGAAAGACCG with its measured Kd.
3.43
